Reference for the values: patent EP0238178B1

Test system: Streptococcus pneumoniae
ASSAY INFO: Experimental bacterial infection in mice, ED50
Type: in vivo
TEST CONDITIONS: Streptococcus pneumoniae, po, two doses, dose protecting 50% of animals, read-out: Oral ED50
Could you please mark fulfilled for values of ED50 below 30 mg/kg and not fulfilled for values at or above it?

CC[C@H]1OC(=O)[C@H](C)[C@@H](O[C@H]2C[C@@](C)(OC)[C@@H](O)[C@H](C)O2)[C@H](C)[C@@H](O[C@@H]2O[C@H](C)C[C@H](N(C)C)[C@H]2O)[C@](C)(O)C[C@@H](C)[C@H](NCCC(C)CCCC(C)(C)OC)[C@H](C)[C@@H](O)[C@]1(C)O (stereo partly drawn)
fulfilled

Hello, is ED50 of the following compound strictly smaller than 30 mg/kg? CC[C@H]1OC(=O)[C@H](C)[C@@H](O[C@H]2C[C@@](C)(OC)[C@@H](O)[C@H](C)O2)[C@H](C)[C@@H](O[C@@H]2O[C@H](C)C[C@H](N(C)C)[C@H]2O)[C@](C)(O)C[C@@H](C)[C@H](NCCOCCOC)[C@H](C)[C@@H](O)[C@H]1C
not fulfilled

Hello, is ED50 of the following compound strictly smaller than 30 mg/kg? CC[C@H]1OC(=O)[C@H](C)[C@@H](O[C@H]2C[C@@](C)(OC)[C@@H](O)[C@H](C)O2)[C@H](C)[C@@H](O[C@@H]2O[C@H](C)C[C@H](N(C)C)[C@H]2O)[C@](C)(O)C[C@@H](C)[C@H](NCCCCCO)[C@H](C)[C@@H](O)[C@]1(C)O
not fulfilled

Hello, is ED50 of the following compound strictly smaller than 30 mg/kg? CCCCCCCN[C@@H]1[C@H](C)[C@@H](O)[C@](C)(O)[C@@H](CC)OC(=O)[C@H](C)[C@@H](O[C@H]2C[C@@](C)(OC)[C@@H](O)[C@H](C)O2)[C@H](C)[C@@H](O[C@@H]2O[C@H](C)C[C@H](N(C)C)[C@H]2O)[C@](C)(O)C[C@H]1C [Compound 7, 9-Deoxo-9-(-n-heptylamino)erythromycin]
not fulfilled

Hello, is ED50 of the following compound strictly smaller than 30 mg/kg? CCCCCCCCCCN[C@@H]1[C@H](C)[C@@H](O)[C@](C)(O)[C@@H](CC)OC(=O)[C@H](C)[C@@H](O[C@H]2C[C@@](C)(OC)[C@@H](O)[C@H](C)O2)[C@H](C)[C@@H](O[C@@H]2O[C@H](C)C[C@H](N(C)C)[C@H]2O)[C@](C)(O)C[C@H]1C
not fulfilled

Hello, is ED50 of the following compound strictly smaller than 30 mg/kg? CC[C@H]1OC(=O)[C@H](C)[C@@H](O[C@H]2C[C@@](C)(OC)[C@@H](O)[C@H](C)O2)[C@H](C)[C@@H](O[C@@H]2O[C@H](C)C[C@H](N(C)C)[C@H]2O)[C@](C)(O)C[C@@H](C)[C@H](NCC(C)(C)CO)[C@H](C)[C@@H](O)[C@]1(C)O
not fulfilled

Hello, is ED50 of the following compound strictly smaller than 30 mg/kg? CC[C@H]1OC(=O)[C@H](C)[C@@H](O[C@H]2C[C@@](C)(OC)[C@@H](O)[C@H](C)O2)[C@H](C)[C@@H](O[C@@H]2O[C@H](C)C[C@H](N(C)C)[C@H]2O)[C@](C)(O)C[C@@H](C)[C@H](NCCCC#N)[C@H](C)[C@@H](O)[C@]1(C)O
fulfilled

Hello, is ED50 of the following compound strictly smaller than 30 mg/kg? CC[C@H]1OC(=O)[C@H](C)[C@@H](O[C@H]2C[C@@](C)(OC)[C@@H](O)[C@H](C)O2)[C@H](C)[C@@H](O[C@@H]2O[C@H](C)C[C@H](N(C)C)[C@H]2O)[C@](C)(O)C[C@@H](C)[C@H](NCC#Cc2ccccc2)[C@H](C)[C@@H](O)[C@]1(C)O
not fulfilled

Hello, is ED50 of the following compound strictly smaller than 30 mg/kg? CCCN[C@@H]1[C@H](C)[C@@H](O)[C@@H](C)[C@@H](CC)OC(=O)[C@H](C)[C@@H](O[C@H]2C[C@@](C)(OC)[C@@H](O)[C@H](C)O2)[C@H](C)[C@@H](O[C@@H]2O[C@H](C)C[C@H](N(C)C)[C@H]2O)[C@](C)(O)C[C@H]1C
not fulfilled
